Value source: patent US20260258115A1

I'd appreciate it if you could supply Neut IC50 subtype A values for the items below.
target: RSV F on RSV subtype A virus (mKate-RSV A2) (respiratory syncytial virus A2, UniProt P03420 26-574); assay: cell-based or functional assay
Numbers only, in µg/mL.

ADI-19448 (antibody, V domains shown, full-length IgG) VH: EVQLLESGGGLVKPGGSLRLSCAASGFTFSSYSMNWVRQAPGKGLEWVSSISSSSSYIYYADSVKGRFTISRDNAKNSLYLQMNSLRAEDTAVYYCARELLDPGIAAAGFDYWGQGTLVTVSS VL: QSVLTQPPSVSGAPGQRVTISCTGSSSNIGAGYDVHWYQQLPGTAPKLLIYGNSNRPSGVPDRFSGSKSGTSASLAITGLQAEDEADYYCQSYDSSLSVNYVFGTGTKVTVL = 9.64

Turning to the following binder.
Data request: Record request: Neut IC50 subtype A value, item ADI-19427 (antibody, V domains shown, full-length IgG) VH: EVQLVESGGGLVKPGGSLRLSCAASGFTFSSYSMNWVRQAPGKGLEWVSSISSSSSFISYADSVKGRFTISRDSAKNSLYLQMNSLRAEDTAVYYCARDHPNWNGLAYFDYWGQGTLVTVSS VL: QSVLTQPPSISGAPGQRVTISCTGSSSNIGAGYDVQWHQQLPGTAPKLLIYGNSNRPSGVPDRFSGSKSGTSASLAITGLQAEDEADYYCQSYDSSLSGWVFGGGTKLTVL
Data returned: 0.01
